# System: MS2 coat protein
# Method: apparent KD of MS2 coat protein; designed switch direction (-1 OFF switch, 1 ON switch): -1; higher = weaker reporter binding
# Measurement Setup: Eterna round: R95; input ligand: none
The entries below come with measured apparent KD of MS2 coat protein values attached.
Please reply with the bare figure in nM and do not write the unit itself.

Report apparent KD of MS2 coat protein for UCAAGCUUUAGGCGUGUGAACAUGAGGAUCACCCAUGUAUUUUUGGUUAGGAGUUCUGUAAGGGAUGCUCGUCUUAU [JR_SWV3TOV1_Sub092] (puzzle: Sensor v3, turn-off variant 1) please. 75.8

Entry GGUUGACAUGAGGAUCACCCAUGUGAGGAUAUGCGAGAGAAAAAAGUGAGGAAGUUUAGCAGAAGGCGCUGUCG [salish99-ex1_r3_006] (puzzle: Exclusion 1) please 97.7

Entry AGUAACUAUCACGAAAGUGAUAGUUACAACAAGUGAUAAACAUGAGGAUCACCCAUGUCCUCAUUUGCUCGUUUUAU [Sensor 3 - 15] (puzzle: Sensor v3, turn-off variant 2) please 323

Entry AAAUUAAGUGUGAGGAUAUGCUGGUCCUUGGAUCAGCAGAAGGCACAUGAGGAUCACCCAUGUAAUAUAUUUAA [Mat - Exclusion 4 - JL Mod - D49] (puzzle: Brourd's mod of Exclusion 4) please 144

Entry GAUUAUGCGAGCUUUAGGGACAUGAGGAUCACCCAUGUUCGUCUUAUUGGUCUGAGUGCACUGACAUACCUAAAUCU [JMF 86] (puzzle: Sensor v3, turn-off variant 1) please 19.9
